# system: rα3β4 nAChR (Rattus norvegicus, UniProt P04757+P12392)
# Sequence (P04757 26-499): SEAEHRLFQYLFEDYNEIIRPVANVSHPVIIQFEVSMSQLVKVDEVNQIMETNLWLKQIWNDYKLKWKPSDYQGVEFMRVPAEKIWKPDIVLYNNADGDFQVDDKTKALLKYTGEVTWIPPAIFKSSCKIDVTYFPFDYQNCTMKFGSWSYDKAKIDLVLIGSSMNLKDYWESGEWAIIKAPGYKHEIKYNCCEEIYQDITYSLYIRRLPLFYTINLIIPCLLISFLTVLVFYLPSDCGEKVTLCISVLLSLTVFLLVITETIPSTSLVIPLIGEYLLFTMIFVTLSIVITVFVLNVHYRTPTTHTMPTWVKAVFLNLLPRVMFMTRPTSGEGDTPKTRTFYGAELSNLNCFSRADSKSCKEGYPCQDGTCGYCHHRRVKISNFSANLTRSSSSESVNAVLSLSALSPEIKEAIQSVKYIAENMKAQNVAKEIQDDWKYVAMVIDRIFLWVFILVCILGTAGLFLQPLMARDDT
# Sequence (P12392 22-495 limits assumed): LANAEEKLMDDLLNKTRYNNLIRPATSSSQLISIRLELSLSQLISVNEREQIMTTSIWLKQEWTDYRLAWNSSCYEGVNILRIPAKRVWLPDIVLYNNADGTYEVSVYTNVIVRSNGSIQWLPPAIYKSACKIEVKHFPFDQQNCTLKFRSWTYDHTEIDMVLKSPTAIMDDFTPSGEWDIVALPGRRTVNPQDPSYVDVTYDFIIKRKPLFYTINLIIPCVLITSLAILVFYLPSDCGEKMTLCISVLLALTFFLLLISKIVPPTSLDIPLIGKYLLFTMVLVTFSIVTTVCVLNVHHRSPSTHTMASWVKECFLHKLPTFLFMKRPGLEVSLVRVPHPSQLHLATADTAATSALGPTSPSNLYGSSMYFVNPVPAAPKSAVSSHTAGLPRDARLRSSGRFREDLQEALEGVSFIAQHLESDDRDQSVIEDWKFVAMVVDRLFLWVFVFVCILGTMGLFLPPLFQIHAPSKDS
# experiment_notes: cell-based
Positions of bridges follow the written chain, without caps; N, C: chain ends. Non-standard residues stand in square brackets, D forms with d. Residues, ends and D or L forms follow the SMILES beside them. Hyp = O=C(O)[C@@H]1C[C@@H](O)CN1
# reported IC50; entries follow

# molecule, units_symbol, bound_type, IC50
measured = [
    ("CC[C@H](C)[C@@H]1NC(=O)[C@H](Cc2c[nH]cn2)NC(=O)[C@@H]2CCCN2C(=O)[C@H](CC(N)=O)NC(=O)[C@H](CC(N)=O)NC(=O)[C@H](C(C)C)NC(=O)[C@H](CC(N)=O)NC(=O)[C@@H]2CSSC[C@H](NC(=O)CN)C(=O)N[C@@H](CSSC[C@@H](C(N)=O)NC1=O)C(=O)N[C@@H](CO)C(=O)N[C@@H](Cc1c[nH]cn1)C(=O)N1C[C@H](O)C[C@H]1C(=O)N[C@@H](C)C(=O)N2 [[P6O]RegIIA] (H-GCCSH[Hyp]ACNVNNPHIC-NH2; disulfide 2-8, 3-16)", "nM", ">", 10000),
    ("CC[C@H](C)[C@@H]1NC(=O)[C@H](Cc2c[nH]cn2)NC(=O)[C@@H]2CCCN2C(=O)[C@H](CC(N)=O)NC(=O)[C@H](CC(N)=O)NC(=O)[C@H](C(C)C)NC(=O)[C@H](CC(N)=O)NC(=O)[C@@H]2CSSC[C@H](NC(=O)CN)C(=O)N[C@@H](CSSC[C@@H](C(N)=O)NC1=O)C(=O)N[C@@H](CO)C(=O)N[C@@H](CCC(=O)O)C(=O)N1CCC[C@H]1C(=O)N[C@@H](C)C(=O)N2 [[H5E]RegIIA] (H-GCCSEPACNVNNPHIC-NH2; disulfide 2-8, 3-16)", "nM", ">", 10000),
    ("CC[C@H](C)[C@@H]1NC(=O)[C@H](Cc2c[nH]cn2)NC(=O)[C@@H]2CCCN2C(=O)[C@H](CC(N)=O)NC(=O)[C@H](CC(N)=O)NC(=O)[C@H](C(C)C)NC(=O)[C@H](CC(N)=O)NC(=O)[C@@H]2CSSC[C@H](NC(=O)CN)C(=O)N[C@@H](CSSC[C@@H](C(N)=O)NC1=O)C(=O)N[C@@H](CO)C(=O)N[C@@H](C(C)C)C(=O)N1CCC[C@H]1C(=O)N[C@@H](C)C(=O)N2 [[H5V]RegIIA] (H-GCCSVPACNVNNPHIC-NH2; disulfide 2-8, 3-16)", "nM", "=", 8800),
    ("CC[C@H](C)[C@@H]1NC(=O)[C@H](Cc2c[nH]cn2)NC(=O)[C@@H]2CCCN2C(=O)[C@H](CC(N)=O)NC(=O)[C@H](CC(N)=O)NC(=O)[C@H](C(C)C)NC(=O)[C@H](CC(N)=O)NC(=O)[C@@H]2CSSC[C@H](NC(=O)[C@H](C)N)C(=O)N[C@@H](CSSC[C@@H](C(N)=O)NC1=O)C(=O)N[C@@H](CO)C(=O)N[C@@H](Cc1c[nH]cn1)C(=O)N1CCC[C@H]1C(=O)N[C@@H](C)C(=O)N2 [[G1A]RegIIA] (H-ACCSHPACNVNNPHIC-NH2; disulfide 2-8, 3-16)", "nM", "=", 132),
    ("CC[C@H](C)[C@@H]1NC(=O)[C@H](Cc2cnc[nH]2)NC(=O)[C@@H]2CCCN2C(=O)[C@H](CC(N)=O)NC(=O)[C@H](CC(N)=O)NC(=O)[C@H](C(C)C)NC(=O)[C@H](CC(N)=O)NC(=O)[C@@H]2CSSC[C@H](NC(=O)CN)C(=O)N[C@@H](CSSC[C@@H](C(N)=O)NC1=O)C(=O)N[C@@H](CO)C(=O)N[C@@H](Cc1cnc[nH]1)C(=O)N1CCC[C@H]1C(=O)N[C@@H](C)C(=O)N2 [RegIIA, reference compound] (H-GCCSHPACNVNNPHIC-NH2; disulfide 2-8, 3-16)", "nM", "=", 102),
    ("CC[C@H](C)[C@@H]1NC(=O)[C@H](Cc2c[nH]cn2)NC(=O)[C@@H]2CCCN2C(=O)[C@H](CC(N)=O)NC(=O)[C@H](CC(N)=O)NC(=O)[C@H](C(C)C)NC(=O)[C@H](CC(N)=O)NC(=O)[C@@H]2CSSC[C@H](NC(=O)CN)C(=O)N[C@@H](CSSC[C@@H](C(N)=O)NC1=O)C(=O)N[C@@H](C)C(=O)N[C@@H](Cc1c[nH]cn1)C(=O)N1CCC[C@H]1C(=O)N[C@@H](C)C(=O)N2 [[S4A]RegIIA] (H-GCCAHPACNVNNPHIC-NH2; disulfide 2-8, 3-16)", "nM", "=", 95),
]

---

# reported IC50; entries follow
# system: rα3β4 nAChR (Rattus norvegicus, UniProt P04757+P12392)
# experiment_notes: cell-based
Positions of bridges follow the written chain, without caps; N, C: chain ends. Residues, ends and D or L forms follow the SMILES beside them.

# molecule, bound_type, IC50, µM
measured = [
    ("CC[C@H](C)[C@@H]1NC(=O)[C@H](Cc2c[nH]cn2)NC(=O)[C@@H]2CCCN2C(=O)[C@H](CC(N)=O)NC(=O)[C@H](CC(N)=O)NC(=O)[C@H](C(C)C)NC(=O)[C@H](CC(N)=O)NC(=O)[C@@H]2CSSC[C@H](NC(=O)CN)C(=O)N[C@@H](CSSC[C@@H](C(N)=O)NC1=O)C(=O)N[C@@H](CO)C(=O)N[C@@H](CO)C(=O)N1CCC[C@H]1C(=O)N[C@@H](C)C(=O)N2 [[H5S]RegIIA] (H-GCCSSPACNVNNPHIC-NH2; disulfide 2-8, 3-16)", "=", 5.73),
    ("CC[C@H](C)[C@@H]1NC(=O)[C@H](Cc2c[nH]cn2)NC(=O)[C@@H]2CCCN2C(=O)[C@H](CC(N)=O)NC(=O)[C@H](CC(N)=O)NC(=O)[C@H](C(C)C)NC(=O)[C@H](CC(N)=O)NC(=O)[C@@H]2CSSC[C@H](NC(=O)CN)C(=O)N[C@@H](CSSC[C@@H](C(N)=O)NC1=O)C(=O)N[C@@H](CO)C(=O)N[C@@H](CC(C)C)C(=O)N1CCC[C@H]1C(=O)N[C@@H](C)C(=O)N2 [[H5L]RegIIA] (H-GCCSLPACNVNNPHIC-NH2; disulfide 2-8, 3-16)", ">", 10),
]

---

# system: rα3β4 nAChR (Rattus norvegicus, UniProt P04757+P12392)
# experiment_notes: cell-based
Positions of bridges follow the written chain, without caps; N, C: chain ends. Residues, ends and D or L forms follow the SMILES beside them.
# reported IC50; entries follow

# compound, IC50
records = [
    ("CC[C@H](C)[C@@H]1NC(=O)[C@H](Cc2c[nH]cn2)NC(=O)[C@@H]2CCCN2C(=O)[C@H](CC(N)=O)NC(=O)[C@H](CC(N)=O)NC(=O)[C@H](C(C)C)NC(=O)[C@H](CC(N)=O)NC(=O)[C@@H]2CSSC[C@H](NC(=O)CN)C(=O)N[C@@H](CSSC[C@@H](C(N)=O)NC1=O)C(=O)N[C@@H](CO)C(=O)N[C@@H](C)C(=O)N1CCC[C@H]1C(=O)N[C@@H](C)C(=O)N2 [[H5A]RegIIA] (H-GCCSAPACNVNNPHIC-NH2; disulfide 2-8, 3-16)", "> 10 µM"),
    ("CC[C@H](C)[C@@H]1NC(=O)[C@H](Cc2c[nH]cn2)NC(=O)[C@@H]2CCCN2C(=O)[C@H](CC(N)=O)NC(=O)[C@H](CC(N)=O)NC(=O)[C@H](C(C)C)NC(=O)[C@H](CC(N)=O)NC(=O)[C@@H]2CSSC[C@H](NC(=O)CN)C(=O)N[C@@H](CSSC[C@@H](C(N)=O)NC1=O)C(=O)N[C@@H](CO)C(=O)N[C@@H](Cc1c[nH]cn1)C(=O)N[C@@H](C)C(=O)N[C@@H](C)C(=O)N2 [[P6A]RegIIA] (H-GCCSHAACNVNNPHIC-NH2; disulfide 2-8, 3-16)", "> 10 µM"),
]

---

What follows is a record of pIC50 for rα7 nAChR (Rattus norvegicus).
pIC50: −log10 of the molar value. Positions of bridges follow the written chain, without caps; N, C: chain ends. Non-standard residues stand in square brackets, D forms with d. Residues, ends and D or L forms follow the SMILES beside them. Hyp = O=C(O)[C@@H]1C[C@@H](O)CN1

# molecule, bound_type, pIC50
measured = [
    ("CC[C@H](C)[C@@H]1NC(=O)[C@H](Cc2c[nH]cn2)NC(=O)[C@@H]2CCCN2C(=O)[C@H](CC(N)=O)NC(=O)[C@H](CC(N)=O)NC(=O)[C@H](C(C)C)NC(=O)[C@H](CC(N)=O)NC(=O)[C@@H]2CSSC[C@H](NC(=O)[C@H](C)N)C(=O)N[C@@H](CSSC[C@@H](C(N)=O)NC1=O)C(=O)N[C@@H](CO)C(=O)N[C@@H](Cc1c[nH]cn1)C(=O)N1CCC[C@H]1C(=O)N[C@@H](C)C(=O)N2 [[G1A]RegIIA] (H-ACCSHPACNVNNPHIC-NH2; disulfide 2-8, 3-16)", "=", 6.54),
    ("CC[C@H](C)[C@@H]1NC(=O)[C@H](Cc2cnc[nH]2)NC(=O)[C@@H]2CCCN2C(=O)[C@H](CC(N)=O)NC(=O)[C@H](CC(N)=O)NC(=O)[C@H](C(C)C)NC(=O)[C@H](CC(N)=O)NC(=O)[C@@H]2CSSC[C@H](NC(=O)CN)C(=O)N[C@@H](CSSC[C@@H](C(N)=O)NC1=O)C(=O)N[C@@H](CO)C(=O)N[C@@H](Cc1cnc[nH]1)C(=O)N1CCC[C@H]1C(=O)N[C@@H](C)C(=O)N2 [RegIIA, reference compound] (H-GCCSHPACNVNNPHIC-NH2; disulfide 2-8, 3-16)", "=", 7.37),
    ("CC[C@H](C)[C@@H]1NC(=O)[C@H](Cc2c[nH]cn2)NC(=O)[C@@H]2CCCN2C(=O)[C@H](CC(N)=O)NC(=O)[C@H](CC(N)=O)NC(=O)[C@H](C(C)C)NC(=O)[C@H](CC(N)=O)NC(=O)[C@@H]2CSSC[C@H](NC(=O)CN)C(=O)N[C@@H](CSSC[C@@H](C(N)=O)NC1=O)C(=O)N[C@@H](CO)C(=O)N[C@@H](CCC(=O)O)C(=O)N1CCC[C@H]1C(=O)N[C@@H](C)C(=O)N2 [[H5E]RegIIA] (H-GCCSEPACNVNNPHIC-NH2; disulfide 2-8, 3-16)", "=", 6.36),
    ("CC[C@H](C)[C@@H]1NC(=O)[C@H](Cc2c[nH]cn2)NC(=O)[C@@H]2CCCN2C(=O)[C@H](CC(N)=O)NC(=O)[C@H](CC(N)=O)NC(=O)[C@H](C(C)C)NC(=O)[C@H](CC(N)=O)NC(=O)[C@@H]2CSSC[C@H](NC(=O)CN)C(=O)N[C@@H](CSSC[C@@H](C(N)=O)NC1=O)C(=O)N[C@@H](CO)C(=O)N[C@@H](Cc1c[nH]cn1)C(=O)N1C[C@H](O)C[C@H]1C(=O)N[C@@H](C)C(=O)N2 [[P6O]RegIIA] (H-GCCSH[Hyp]ACNVNNPHIC-NH2; disulfide 2-8, 3-16)", "<", 5.00),
    ("CC[C@H](C)[C@@H]1NC(=O)[C@H](Cc2c[nH]cn2)NC(=O)[C@@H]2CCCN2C(=O)[C@H](CC(N)=O)NC(=O)[C@H](CC(N)=O)NC(=O)[C@H](C(C)C)NC(=O)[C@H](CC(N)=O)NC(=O)[C@@H]2CSSC[C@H](NC(=O)CN)C(=O)N[C@@H](CSSC[C@@H](C(N)=O)NC1=O)C(=O)N[C@@H](CO)C(=O)N[C@@H](Cc1c[nH]cn1)C(=O)N1CCC[C@H]1C(=O)NCC(=O)N2 [[A7G]RegIIA] (H-GCCSHPGCNVNNPHIC-NH2; disulfide 2-8, 3-16)", "=", 6.22),
]

Reference source for all entries: paper PMC11433573
